- Test system: MS2 coat protein
- assayRemarks: apparent KD of MS2 coat protein; higher = weaker reporter binding
- reportedConditions: Eterna round: R107; input ligand: theophylline 20 uM
recordedMetric: apparent KD of MS2 coat protein (nM)

[
  {
    "sequenceEntry": "CAUACUUUAGUAUGACAUGUGGGCAGUGAUACCAGAUACGAAAGUAUCCCUUGGCAGCACAACAUGAGGAUCACCCAUGUAAUUA [Theophylline A 2]",
    "targetDesc": "MS2 coat protein",
    "valueObserved": 52
  },
  {
    "sequenceEntry": "UCACAUGAGGAUCACCCAUGUCAUGUUGAAGGAGCGACCAGGAGGUCAGGUAGGUCGCAACACAUGAGGAUCACCCAUGUGGCCC [Qetesh]",
    "targetDesc": "MS2 coat protein",
    "valueObserved": 119
  },
  {
    "sequenceEntry": "AUUGUGAACCUGAUCGUAUAAUGUAGCGAUACCAGUAUAAUACAUUACCCUUGGCAGCGCGACACAUGAGGAUCACCCAUGUAAG [theeternabot_exclusion_MS2_Theo_A_10]",
    "targetDesc": "MS2 coat protein",
    "valueObserved": 26.9
  }
]

###

- Tested on: MS2 coat protein
- assayRemarks: apparent KD of MS2 coat protein; designed switch direction (-1 OFF switch, 1 ON switch): -1; higher = weaker reporter binding
- reportedConditions: input ligand: FMN 200 uM

[
  {
    "sequenceEntry": "GGGAAGGGAGGAUAUGAGGGAGAGAACAUGAGGAUCACCCAUGUGAGACCUCAGGAUCGAUCAGAAGGCCCGACCC [AK-MS2ROC-r4-exclusion5-13.1] (Eterna round: R97, puzzle: Exclusion 5)",
    "apparent KD of MS2 coat protein (nM)": 824
  },
  {
    "sequenceEntry": "GUCAUCAAACAUGGGAUAAACAUGAGGAUCACCCAUGUAUACAAGUUUUUUGCUCGUCUUAUAAUAAGUUUGAUGAC [Antenna 6 - Jieux - Sensor, turn-off variant 1] (Eterna round: R97, puzzle: Sensor, turn-off variant 1)",
    "apparent KD of MS2 coat protein (nM)": 16.4
  },
  {
    "sequenceEntry": "UGUCAGAUGGUAGGAUAUCCCUAUCGCGUGUCCCUUUCCUAACAUGAGGAUCACCCAUGUCGGUGGGAGAAGGGCCGUAUGGUG [salish99_ExNG02_R04_036] (Eterna round: R96, puzzle: Exclusion NG 2)",
    "apparent KD of MS2 coat protein (nM)": 15.7
  },
  {
    "sequenceEntry": "GGUACUCAAAGAGUACCAAUACGAACAUGAGGAUCACCCAUGUAGGAUAUGCUACUCAAAGAGUAGCAGAAGGAUAUGAUGAAU [Far Half Aptamer v16] (Eterna round: R96, puzzle: Exclusion NG 3)",
    "apparent KD of MS2 coat protein (nM)": 41.1
  },
  {
    "sequenceEntry": "GGUCAUCAAGUCAGGAUAUCGUCAAAUCAAUCAGGCGAGAAGGGACAUGAGGAUCACCCAUGUCGACUCAUCAC [Ex4 #4] (Eterna round: R97, puzzle: Brourd's mod of Exclusion 4)",
    "apparent KD of MS2 coat protein (nM)": 117
  }
]

###

- System: MS2 coat protein
- assayRemarks: apparent KD of MS2 coat protein; higher = weaker reporter binding
- reportedConditions: Eterna round: R107; input ligand: tryptophan 2.4 mM
Recorded apparent KD of MS2 coat protein determines the group label, using band A = under 30 nM, band B = from 30 nM up to 90 nM, band C = 90 nM and over

[
  {
    "sequenceEntry": "CGAGCUGACGGAAGGAGCGAAGCCUACUCGGUGUUCCCACAUGAGGAUCACCCAUGUGGGCUUCAGGUAGGUCGCCGAACAGUCG [Vecequlala]",
    "targetDesc": "MS2 coat protein",
    "className": "band B"
  },
  {
    "sequenceEntry": "AGCUCGCGAAAGCGAGCAACAUGAUCCGAAGGAGCGCGCGAAAGCGCAGGUAGGUCGCGGACAUGAGGAUCACCCAUGUCUCCUU [MAT - Exclusion Arginine A - Mod of Eli - D14]",
    "targetDesc": "MS2 coat protein",
    "className": "band B"
  },
  {
    "sequenceEntry": "AUUGUGAACCUGAUCGUAUAAUGUAGCGAUACCAGUAUAAUACAUUACCCUUGGCAGCGCGACACAUGAGGAUCACCCAUGUAAG [theeternabot_exclusion_MS2_Theo_A_10]",
    "targetDesc": "MS2 coat protein",
    "className": "band A"
  },
  {
    "sequenceEntry": "AGACAUGAGGAUCACCCAUGUAGUAUGGAUACCAGAUCCAGAUUUAUCCCUUGGCAGCUGUGGUACAGCGAUGGAUCGCUCCUAG [Exclusion - Theophylline A (Freestyle 11)]",
    "targetDesc": "MS2 coat protein",
    "className": "band A"
  },
  {
    "sequenceEntry": "AACCAUCUCGGCGAUACCAGUGCCUACGAGUACAUGAGGAUCACCCAUGUAGGUGACCGACACCCUUGGCAGCGCGAUUGAGUCA [theeternabot_sameState_MS2_Theo_B_45]",
    "targetDesc": "MS2 coat protein",
    "className": "band C"
  },
  {
    "sequenceEntry": "ACAAGGACAUGAGGAUCACCCAUGUGGGAAGGAGCGCAUAAAUAUGCAGGUAGGUCGCCCGGCGUGAUAUUUAAUAUUUUAAUAA [Exclusion - Arginine A]",
    "targetDesc": "MS2 coat protein",
    "className": "band B"
  },
  {
    "sequenceEntry": "UGAGAGGGCGGAAGGAGCGACAUGAGGAUCACCCAUGUCUCCCGUUAUGGGAGUUCUUUAGGUCAGGUAGGUCGCCGGCCUCUCA [#1 Exclusion - Arginine B Attempt #10 (Inspired by Omei)]",
    "targetDesc": "MS2 coat protein",
    "className": "band C"
  },
  {
    "sequenceEntry": "UGGUCCGUCGGAAGGAGCGACAUGAGGAUCACCCAUGUCUCCCGUUAUGGGAGUUCUUUAGGUCAGGUAGGUCGCCGGCGGGUCA [#1 Exclusion - Arginine B Attempt #12 (Inspired by Omei)]",
    "targetDesc": "MS2 coat protein",
    "className": "band C"
  },
  {
    "sequenceEntry": "ACAUGAGGAUCACCCAUGUGAAGCAGGGUACGAGGACCGGUACGGCCGCCACUCGAGGAUUAUACCGAGUGAAUGGCAACGAUGU [whbob_Ex_trypto A_2s18]",
    "targetDesc": "MS2 coat protein",
    "className": "band A"
  },
  {
    "sequenceEntry": "AGAAUAACACAUGAGGAUCACCCAUGUGAUACCAGCUAGGAAACUAGCCCUUGGCAGCACAUAAUCCUCAUGAGCUGCCAUAAUA [(M1)-(M2)-(T1)-(T2)-(M)'-(T)'_Design2_2/19/17]",
    "targetDesc": "MS2 coat protein",
    "className": "band A"
  }
]

###

- Test system: MS2 coat protein
- assayRemarks: apparent KD of MS2 coat protein; designed switch direction (-1 OFF switch, 1 ON switch): -1; higher = weaker reporter binding
- reportedConditions: Eterna round: R95; input ligand: microRNA oligo, concentration not stated
recordedMetric: apparent KD of MS2 coat protein (µM)

[
  {
    "sequenceEntry": "UACUUCCGAGGAUAUACAUGAGGAUCACCCAUGUGCUUCAGCAUCUAAUGAUGCAUGGGUAGAAGGCGGUAGUU [LRO-Excl3-20] (puzzle: Exclusion 3)",
    "recordedMetric": "apparent KD of MS2 coat protein",
    "outputUnit": "µM",
    "valueObserved": 0.056
  },
  {
    "sequenceEntry": "AAGAAACAUGAGGAUCACCCAUGUGAGGAUAUGAAAAAGAAAAGAAAAGAAAGAAGGUUCAGAAGGCACAAAGG [salish99-ex1_r3_027] (puzzle: Exclusion 1)",
    "recordedMetric": "apparent KD of MS2 coat protein",
    "outputUnit": "µM",
    "valueObserved": 0.0458
  },
  {
    "sequenceEntry": "AGACAGUCAGGAUAUACAUGAGGAUCACCCAUGUUGAGAUGUGAAAGGGCAGGAAUAGGUAGAAGGGACGAGAG [JR_Exclu3_Sub038] (puzzle: Exclusion 3)",
    "recordedMetric": "apparent KD of MS2 coat protein",
    "outputUnit": "µM",
    "valueObserved": 0.0306
  },
  {
    "sequenceEntry": "AGAAGACAUGAGGAUCACCCAUGUAAGGAUAUCGAAGGUAAGAGAGGAAAGAAGUUAACGAGAAGGUACAGGUG [JR_Exclu1_Sub097] (puzzle: Exclusion 1)",
    "recordedMetric": "apparent KD of MS2 coat protein",
    "outputUnit": "µM",
    "valueObserved": 0.123
  },
  {
    "sequenceEntry": "CUCUCGCGAGGAUAUGAUUUAAGUAACAUGAGGAUCACCCAUGUUUUUCCGUUGUUAUGUUCAGAAGGCGCGUGAU [JR_E5_Sub022] (puzzle: Exclusion 5)",
    "recordedMetric": "apparent KD of MS2 coat protein",
    "outputUnit": "µM",
    "valueObserved": 0.0388
  },
  {
    "sequenceEntry": "UUAGCGCGAGGAUAUGCGGUUUGUGCUUUGGGCCCUGGCGUACAUGAGGAUCACCCAUGUAGAAGGCGUGUUGU [Apr-15 SS2-50] (puzzle: Exclusion 2)",
    "recordedMetric": "apparent KD of MS2 coat protein",
    "outputUnit": "µM",
    "valueObserved": 0.0207
  }
]
